Reported CC50 values are given for each entry in this list.
- procedure-text: in vitro
- condition-context: African green monkey
reported-metric: CC50 (µM)

{"compound": "CC(=O)C1=C(O)C=C2Oc3c(C(C)=O)c(O)c(C)c(O)c3[C@@]2(C)[C@@H]1O", "readout-unit": "µM", "observed": 99}
{"compound": "CC(=O)C1=C(O)C=C2Oc3c(C(C)=O)c(O)c(C)c(O)c3[C@@]2(C)C1=O [Compound 1, (R)-(+)-Usnic acid]", "readout-unit": "µM", "observed": 147}
{"compound": "CCC(CC)COC(=O)[C@H](C)N[P@](=O)(OC[C@H]1O[C@@](C#N)(c2ccc3c(N)ncnn23)[C@H](O)[C@@H]1O)Oc1ccccc1 [Remdesivir, reference compound]", "readout-unit": "µM", "observed": 711}
